Molecular target: NLRP3 (Homo sapiens, UniProt Q96P20)
Sequence (Q96P20 whole entry): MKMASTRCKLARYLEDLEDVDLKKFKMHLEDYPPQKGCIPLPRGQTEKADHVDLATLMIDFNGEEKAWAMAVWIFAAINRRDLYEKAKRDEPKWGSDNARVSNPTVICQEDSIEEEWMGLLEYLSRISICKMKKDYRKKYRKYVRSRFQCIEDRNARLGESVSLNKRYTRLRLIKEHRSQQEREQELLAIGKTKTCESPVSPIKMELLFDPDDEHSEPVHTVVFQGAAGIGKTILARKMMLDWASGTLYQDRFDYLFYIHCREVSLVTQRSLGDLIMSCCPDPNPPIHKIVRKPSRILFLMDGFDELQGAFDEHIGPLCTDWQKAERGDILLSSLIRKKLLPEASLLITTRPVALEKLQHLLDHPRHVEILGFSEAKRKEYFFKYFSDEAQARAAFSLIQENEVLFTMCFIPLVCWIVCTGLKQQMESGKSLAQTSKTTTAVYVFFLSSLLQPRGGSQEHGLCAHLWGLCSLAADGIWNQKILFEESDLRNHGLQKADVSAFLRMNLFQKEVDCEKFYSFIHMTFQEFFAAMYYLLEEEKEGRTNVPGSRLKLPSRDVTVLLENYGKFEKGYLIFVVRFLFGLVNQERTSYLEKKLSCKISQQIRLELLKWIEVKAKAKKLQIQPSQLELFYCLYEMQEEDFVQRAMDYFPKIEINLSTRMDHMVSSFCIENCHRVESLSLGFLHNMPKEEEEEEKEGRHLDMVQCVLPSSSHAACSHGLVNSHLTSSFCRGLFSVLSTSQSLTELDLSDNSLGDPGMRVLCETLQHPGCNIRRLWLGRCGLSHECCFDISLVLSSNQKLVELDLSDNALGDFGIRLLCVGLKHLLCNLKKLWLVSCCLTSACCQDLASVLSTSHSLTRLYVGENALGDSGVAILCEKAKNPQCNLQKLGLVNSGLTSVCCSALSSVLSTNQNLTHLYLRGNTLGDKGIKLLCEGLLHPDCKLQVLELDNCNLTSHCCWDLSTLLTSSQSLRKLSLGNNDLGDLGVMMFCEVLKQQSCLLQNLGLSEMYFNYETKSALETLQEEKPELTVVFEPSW
Assay: Human whole blood IL-1β release assay (LPS, nigericin, AlphaLisa)
Format: cell-based
Parameters: Human whole blood in Li-heparin tubes was obtained from healthy donors; from tissue; host or cells: human whole blood from healthy donors
Conditions: 10 μM nigericin
Recorded pIC50 values for a group of compounds are listed next.
Please treat pIC50 as minus the base-10 logarithm of the molar concentration.

CCN1C[C@@H](O)C[C@@H](Nc2nnc(-c3ccc(C(F)(F)F)cc3O)c(C)n2)C1 [Example 23] | 7.39
Cc1nc(NC2CCC3CCCN3C2)nnc1-c1ccc(C(F)(F)F)cc1O (single isomer, unassigned) [Example 32] | 7.44
Cc1nc(NC2CCCN(C(C)(C)C)C2)nnc1-c1ccc(C(F)(F)F)cc1O (single isomer, unassigned) [Example 11] | 7.81

Could you please provide reported pIC50 for CCN1CCC[C@@H](Nc2nnc(-c3ccc(Cl)cc3O)c(C)n2)C1 [Example 5] ? Thanks!
8.42

Could you please provide reported pIC50 for CCN1CCC[C@@H](Nc2nnc(-c3ccc(F)cc3O)c(C)n2)C1 [Example 6] ? Thanks!
7.84

Could you please provide reported pIC50 for CCN1CCC[C@@H](Nc2ncc(-c3c(C)cc(C(F)(F)F)cc3O)nn2)C1 [Example 1] ? Thanks!
7.41

Could you please provide reported pIC50 for CCN1CCC[C@@H](Nc2nnc(-c3ccc(C(F)(F)F)cc3O)c(C)n2)C1 [Example 4] ? Thanks!
8.27
